All values here come from PubChem BioAssay (Tox21).

- ASSAY_NOTES: qHTS assay to test for compound auto fluorescence at 460 nm (blue) in HepG2 cells (AID 720687)
- EXPERIMENTAL_PARAMETERS: autofluorescence 405/460 nm, 1 h; series mostly up to 91.3 µM
Activity calls are given as the source filed them. Calls come from the whole dose curve; as a rule, active = well fitted curve in the direction sought with a large enough effect in the repeat runs; inconclusive = weak or mixed curves; inactive = flat fitted curve, though single readings scatter.
TEST_READOUT: outcome

Consider the worked cases shown below.
COMPOUND	outcome
Cc1c(C(N)=O)cc([N+](=O)[O-])cc1[N+](=O)[O-]	inactive
COC(C)COC(C)COC(C)CO (configuration not stated)	inactive
CCCCCCCCCCCO	inactive
CC(C(=O)O)c1cccc(C(=O)c2ccccc2)c1 (configuration not stated)	inactive
CNCCCC12CCC(c3ccccc31)c1ccccc12	inactive
COC(=O)c1ccccc1	inactive
Cn1cnc([N+](=O)[O-])c1Sc1ncnc2nc[nH]c12	inactive
Cc1ccc(C)c(O)c1C	inactive
O=C1OC2(c3cc(Br)c(O)c(Br)c3Oc3c2cc(Br)c(O)c3Br)c2c(Cl)c(Cl)c(Cl)c(Cl)c21	inactive
CC(C)CC(C)(O)C#CC(C)(O)CC(C)C (configuration not stated)	inactive

Let's switch to this compound now.
Task: Which outcome is listed for `C#C[C@]1(O)CC[C@H]2[C@@H]3CCC4=Cc5oncc5C[C@]4(C)[C@H]3CC[C@@]21C` ?
Result: inactive
